assay: Clearance of 99m-Tc-IMP-192 in BALB/c mice; format: in vivo; details: BALB/c, mouse, total radioactivity; Urine, 24 h
Where a SMILES comes first, the peptide text is derived from it. Side-chain parts run from the residue outwards. The star is where a group is joined. DTPA = O=C(O)CN(CCN(CC(=O)O)CC(=O)O)CCN(CC(=O)O)CC(=O)*; X1 = NC(=S)NN=CC(=O)*

# compound, excreta dose per gram or mL at 24 h (%ID/g)
data = [
    ("CC(=O)N[C@@H](CCCCNC(=O)CN(CCN(CCN(CC(=O)O)CC(=O)O)CC(=O)O)CC(=O)O)C(=O)N[C@@H](Cc1ccc(O)cc1)C(=O)N[C@@H](CCCCNC(=O)CN(CCN(CCN(CC(=O)O)CC(=O)O)CC(=O)O)CC(=O)O)C(=O)N[C@@H](CCCCNC(=O)[C@H](CS)NC(=O)C=NNC(N)=S)C(N)=O [IMP 192] (Ac-K(DTPA)YK(DTPA)K([Cys-X1])-NH2)", 0.2),
]

---

experiment: Clearance of 99m-Tc-IMP-192 in BALB/c mice; format: in vivo; conditions: BALB/c, mouse, total radioactivity; Stomach, 24 h
Where a SMILES comes first, the peptide text is derived from it. Side-chain parts run from the residue outwards. The star is where a group is joined. DTPA = O=C(O)CN(CCN(CC(=O)O)CC(=O)O)CCN(CC(=O)O)CC(=O)*; X1 = NC(=S)NN=CC(=O)*
reported-property: tissue uptake at 24 h (%ID/g)

# compound, meas-value
data = [
    ("CC(=O)N[C@@H](CCCCNC(=O)CN(CCN(CCN(CC(=O)O)CC(=O)O)CC(=O)O)CC(=O)O)C(=O)N[C@@H](Cc1ccc(O)cc1)C(=O)N[C@@H](CCCCNC(=O)CN(CCN(CCN(CC(=O)O)CC(=O)O)CC(=O)O)CC(=O)O)C(=O)N[C@@H](CCCCNC(=O)[C@H](CS)NC(=O)C=NNC(N)=S)C(N)=O [IMP 192] (Ac-K(DTPA)YK(DTPA)K([Cys-X1])-NH2)", 0.02),
]

---

assay: Comparison of ^177Lu-IMP-241 and ^111In-IMP-241 pretargeting using hMN-14 × m679 F(ab′)2 bsMAb (24 h bsMAb clearance); format: in vivo, nude mice; conditions: female, NCr nude, mouse, blood, iv, total radioactivity, Blood, 24 hour after peptide; read-out: Percent Injected Dose Per Gram
*1 amine or outer side, *2 acyl side, *3 side chain or, on linkers, in order; H or OH if unused. Where a SMILES comes first, the peptide text is derived from it. Side-chain parts run from the residue outwards. [ ]: non-standard residue; d: D form. The star is where a group is joined. DOTA = O=C(O)CN1CCN(CC(=O)O)CCN(CC(=O)*)CCN(CC(=O)O)CC1; NH(2-(imidazol-4-yl)ethyl) = c1ncc(CCN*)[nH]1; Suc = O=C(CCC(=O)[*:2])[*:1]

# compound, tissue uptake at 24 h / %ID/g
rows = [
    ("NC(=O)[C@H](CCCCNC(=O)CNC(=O)CCC(=O)NCCc1cnc[nH]1)NC(=O)[C@@H](Cc1ccc(O)cc1)NC(=O)[C@H](CCCCNC(=O)CNC(=O)CCC(=O)NCCc1cnc[nH]1)NC(=O)[C@H](Cc1ccccc1)NC(=O)CN1CCN(CC(=O)O)CCN(CC(=O)O)CCN(CC(=O)O)CC1 [^177Lu-IMP-241, metal not drawn] ({DOTA}-FK([Gly-Suc-NH(2-(imidazol-4-yl)ethyl)])[dY]K([Gly-Suc-NH(2-(imidazol-4-yl)ethyl)])-NH2)", 0.36),
]
